Reported MB9798 MITC95 P. aeruginosa uM Efflux WT by item:
- Test system: P. aeruginosa MB9798 (efflux+, IMP-1 plasmid)
- applied.conditions: efflux + (MB9798) strain; imipenem at 2 μg/mL; in the presence of a class A, C, D serine β-lactamase inhibitor closely related to relebactam
endpoint.name: MB9798 MITC95 P. aeruginosa uM Efflux WT

[[record]]
compound = "N.NC[C@@H](O)CNS(=O)(=O)c1ccc(N2CCN(CC(=O)O)CC2)c(-c2nnn[nH]2)c1S(N)(=O)=O [Example 137]"
target_entity = "P. aeruginosa MB9798 (efflux+, IMP-1 plasmid)"
result = "6.25 µM"

[[record]]
compound = "CC(=O)N[C@@H]1CCN(c2ccc(S(=O)(=O)N[C@@H]3CCNC3)c(S(N)(=O)=O)c2-c2nnn[nH]2)C1 [Example 95]"
target_entity = "P. aeruginosa MB9798 (efflux+, IMP-1 plasmid)"
result = "6.25 µM"

[[record]]
compound = "NS(=O)(=O)c1c(S(=O)(=O)N[C@@H]2CCNC2)ccc(N2CCC(CO)CC2)c1-c1nnn[nH]1 [Example 101]"
target_entity = "P. aeruginosa MB9798 (efflux+, IMP-1 plasmid)"
result = "1.56 µM"

[[record]]
compound = "NCCNS(=O)(=O)c1ccc(N2CCC(CN)CC2)c(-c2nnn[nH]2)c1S(N)(=O)=O [Example 35]"
target_entity = "P. aeruginosa MB9798 (efflux+, IMP-1 plasmid)"
result = "0.78 µM"


* * *

- target.entity: VIM-1 (Pseudomonas aeruginosa (strain ATCC 15692 / DSM 22644 / CIP 104116 / JCM 14847 / LMG 12228 / 1C / PRS 101 / PAO1), UniProt A0A0F7KYQ8)
- test.summary: biochemical
- applied.conditions: CCF2-FA fluorescence assay, 2 hours at 25° C.; read-out: VIM1 IC50
Where a name gives a salt, the structure may show the parent alone.
endpoint.name: log10 of IC50 (log10 of the value in nM)

[[record]]
molecule = "NC[C@@H](O)CNS(=O)(=O)c1ccc(N2CC[C@H](N)[C@H](F)C2)c(-c2nn[nH]n2)c1S(N)(=O)=O"
endpoint_name = "log10 of IC50"
measured_number = -0.85

[[record]]
molecule = "NCC(=O)N1CCN(c2ccc(S(=O)(=O)NC[C@H](O)CN)c(S(N)(=O)=O)c2-c2nn[nH]n2)CC1"
endpoint_name = "log10 of IC50"
measured_number = -0.24

[[record]]
molecule = "NS(=O)(=O)c1c(S(=O)(=O)N[C@@H]2CCNC2)ccc(N2CCC(O)CC2=O)c1-c1nn[nH]n1 (stereo partly drawn)"
endpoint_name = "log10 of IC50"
measured_number = -0.42

[[record]]
molecule = "NCCOCC1CCN(c2ccc(S(=O)(=O)NC[C@H](O)CN)c(S(N)(=O)=O)c2-c2nn[nH]n2)CC1"
endpoint_name = "log10 of IC50"
measured_number = -0.96

[[record]]
molecule = "NS(=O)(=O)c1c(S(=O)(=O)N[C@@H]2CCNC2)ccc(N2CCCN(CCO)CC2)c1-c1nnn[nH]1"
endpoint_name = "log10 of IC50"
measured_number = 0.20

[[record]]
molecule = "NS(=O)(=O)c1c(S(=O)(=O)N[C@@H]2CCNC2)ccc(N2CCN(C(=O)CO)CC2)c1-c1nnn[nH]1"
endpoint_name = "log10 of IC50"
measured_number = -0.37

[[record]]
molecule = "NC[C@@H](O)CNS(=O)(=O)c1ccc(N2CCC(C(N)=O)C2)c(-c2nn[nH]n2)c1S(N)(=O)=O (stereo partly drawn)"
endpoint_name = "log10 of IC50"
measured_number = 0.08

[[record]]
molecule = "NCCCC1CCN(c2ccc(S(=O)(=O)NC[C@H](O)CN)c(S(N)(=O)=O)c2-c2nn[nH]n2)CC1"
endpoint_name = "log10 of IC50"
measured_number = -1.12

[[record]]
molecule = "NC[C@@H](O)CNS(=O)(=O)c1ccc(N2CCN(CCO)C(=O)C2)c(-c2nn[nH]n2)c1S(N)(=O)=O"
endpoint_name = "log10 of IC50"
measured_number = -0.51

[[record]]
molecule = "NC[C@@H](O)CNS(=O)(=O)c1ccc(N2CCC[C@@H](NCCO)C2)c(-c2nn[nH]n2)c1S(N)(=O)=O [Example 130, trifluoroacetate]"
endpoint_name = "log10 of IC50"
measured_number = 0.62

[[record]]
molecule = "NS(=O)(=O)c1c(S(=O)(=O)N[C@@H]2CCNC2)ccc(N2CC(N3CCOCC3)C2)c1-c1nnn[nH]1"
endpoint_name = "log10 of IC50"
measured_number = 0.09

[[record]]
molecule = "Cl.Cl.NCC1CCN(c2ccc(S(=O)(=O)N[C@@H]3CCNC3)c(S(N)(=O)=O)c2-c2nn[nH]n2)CC1 [Example 135, dihydrochloride]"
endpoint_name = "log10 of IC50"
measured_number = -0.80

[[record]]
molecule = "C[C@H](CN)NS(=O)(=O)c1ccc(N2CC[C@@H](CN)[C@@H](F)C2)c(-c2nn[nH]n2)c1S(N)(=O)=O (racemic)"
endpoint_name = "log10 of IC50"
measured_number = -1.15

[[record]]
molecule = "NS(=O)(=O)c1c(S(=O)(=O)N[C@@H]2CCNC2)ccc(N2CCC3(CC2)CNC3)c1-c1nnn[nH]1"
endpoint_name = "log10 of IC50"
measured_number = -0.30

[[record]]
molecule = "NS(=O)(=O)c1c(S(=O)(=O)N[C@@H]2CCNC2)ccc(N2CCCC(C(=O)NCCCO)C2)c1-c1nnn[nH]1 (stereo partly drawn)"
endpoint_name = "log10 of IC50"
measured_number = -0.30

[[record]]
molecule = "NC[C@@H](O)CNS(=O)(=O)c1ccc(N2CCC(NCCO)CC2)c(-c2nn[nH]n2)c1S(N)(=O)=O [Example 142, bis(2,2,2-trifluoroacetate)]"
endpoint_name = "log10 of IC50"
measured_number = -0.38

[[record]]
molecule = "NCC1=CCN(c2ccc(S(=O)(=O)NC[C@H](O)CN)c(S(N)(=O)=O)c2-c2nn[nH]n2)CC1"
endpoint_name = "log10 of IC50"
measured_number = -0.62

[[record]]
molecule = "NC[C@@H](O)CNS(=O)(=O)c1ccc(Nc2ncc[nH]2)c(-c2nn[nH]n2)c1S(N)(=O)=O"
endpoint_name = "log10 of IC50"
measured_number = 0.93

[[record]]
molecule = "NS(=O)(=O)c1c(S(=O)(=O)N[C@@H]2CCNC2)ccc(N2CCC(S(N)(=O)=O)CC2)c1-c1nnn[nH]1"
endpoint_name = "log10 of IC50"
measured_number = -0.89

[[record]]
molecule = "NCC=C1CCCN(c2ccc(S(=O)(=O)NC[C@H](O)CN)c(S(N)(=O)=O)c2-c2nn[nH]n2)C1 (single isomer, unassigned; isomer a)"
endpoint_name = "log10 of IC50"
measured_number = -0.47

[[record]]
molecule = "NC[C@@H](O)CNS(=O)(=O)c1ccc(N2CC[C@@H](CN)C2)c(-c2nn[nH]n2)c1S(N)(=O)=O"
endpoint_name = "log10 of IC50"
measured_number = 0.66

[[record]]
molecule = "NS(=O)(=O)c1c(S(=O)(=O)C2CNC2)ccc(N2CCC(CO)CC2)c1-c1nnn[nH]1"
endpoint_name = "log10 of IC50"
measured_number = -0.38

[[record]]
molecule = "NCC1CCN(c2ccc(S(=O)(=O)N[C@@H]3CCNC3)c(S(N)(=O)=O)c2-c2nn[nH]n2)C(=O)C1 (stereo partly drawn)"
endpoint_name = "log10 of IC50"
measured_number = -0.02

[[record]]
molecule = "NS(=O)(=O)c1c(S(=O)(=O)N[C@@H]2CCNC2)ccc(N2CC(N3CCCCC3)C2)c1-c1nnn[nH]1"
endpoint_name = "log10 of IC50"
measured_number = 0.46

[[record]]
molecule = "NC[C@@H](O)CNS(=O)(=O)c1ccc(N2C[C@@H]3[C@@H](CN)[C@@H]3C2)c(-c2nn[nH]n2)c1S(N)(=O)=O"
endpoint_name = "log10 of IC50"
measured_number = 0.31

[[record]]
molecule = "CC1(O)CCCN(c2ccc(S(=O)(=O)C3CNC3)c(S(N)(=O)=O)c2-c2nnn[nH]2)C1 (stereo not drawn)"
endpoint_name = "log10 of IC50"
measured_number = 0.26

[[record]]
molecule = "NS(=O)(=O)c1c(S(=O)(=O)N[C@@H]2CCNC2)ccc(N2CCNC(CO)CC2)c1-c1nn[nH]n1 (stereo partly drawn)"
endpoint_name = "log10 of IC50"
measured_number = 0.10


Just for reference, patent US11207312B2 is where these values come from.
